tested_system: VIM-1 (Pseudomonas aeruginosa (strain ATCC 15692 / DSM 22644 / CIP 104116 / JCM 14847 / LMG 12228 / 1C / PRS 101 / PAO1))
protocol_details: Enzyme activity: determination of IC50, fluorescence assay with CCF2-FA substrate (VIM-1)
Type: biochemical
assay_context: VIM-1 enzyme, CCF2-FA fluorescence assay; read-out: VIM-1 IC50
# IC50 annotations

given_smiles | value_unit | IC50
NS(=O)(=O)c1cccc(-c2ccc(CNCCn3nccn3)cc2)c1-c1nnn[nH]1 | nM | 269
NC1(c2ccc(-c3ccc(C(F)(F)F)c(S(N)(=O)=O)c3-c3nn[nH]n3)cc2)CCNCC1 | nM | 3.04
NS(=O)(=O)c1nccc(-n2cnc3ccccc32)c1-c1nn[nH]n1 | nM | 78.3
CN(CCO)Cc1ccc(-c2cccc(S(N)(=O)=O)c2-c2nnn[nH]2)cc1 | nM | 227

====

tested_system: NDM-1 (Klebsiella pneumoniae, UniProt C7C422)
Sequence (C7C422 whole entry, looked up, species assumed): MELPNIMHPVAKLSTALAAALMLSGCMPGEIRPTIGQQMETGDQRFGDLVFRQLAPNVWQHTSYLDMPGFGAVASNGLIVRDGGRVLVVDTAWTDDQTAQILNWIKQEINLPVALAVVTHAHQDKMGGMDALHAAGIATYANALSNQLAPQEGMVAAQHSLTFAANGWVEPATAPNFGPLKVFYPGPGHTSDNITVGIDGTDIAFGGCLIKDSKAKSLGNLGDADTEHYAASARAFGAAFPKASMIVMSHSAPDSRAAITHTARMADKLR
protocol_details: biochemical
Assay type: biochemical
assay_context: NDM-1 enzyme, CCF2-FA substrate; read-out: NDM-1 IC50
pIC50: −log10 of the molar value.
Listed here: items and their measured pIC50.

compound | tested_system | pIC50
NS(=O)(=O)c1c(C(F)(F)F)ccc(-c2cccc(N3CCCC(O)C3)c2)c1-c1nnn[nH]1 (stereo not drawn) [Example 739] | NDM-1 (Klebsiella pneumoniae, UniProt C7C422) | 8.42
Nc1nc2c(-c3ccc(CCCO)c(S(N)(=O)=O)c3-c3nn[nH]n3)cccc2s1 [Example 533] | NDM-1 (Klebsiella pneumoniae, UniProt C7C422) | 9.06
CN(CCN1CCCC1)c1ccc(-c2cccc(S(N)(=O)=O)c2-c2nnn[nH]2)cn1 [Example 629] | NDM-1 (Klebsiella pneumoniae, UniProt C7C422) | 7.36
N#Cc1ccc2ncc(-c3cccc(S(N)(=O)=O)c3-c3nnn[nH]3)n2c1 [Example 648] | NDM-1 (Klebsiella pneumoniae, UniProt C7C422) | 8.29
N=C(NCCCN)c1ccc(-c2ccc(C(F)(F)F)c(S(N)(=O)=O)c2-c2nn[nH]n2)cc1 [Example 565] | NDM-1 (Klebsiella pneumoniae, UniProt C7C422) | 6.73
NS(=O)(=O)c1c(C(F)(F)F)ccc(-c2ccc(S(=O)(=O)CCO)cc2)c1-c1nnn[nH]1 [Example 742] | NDM-1 (Klebsiella pneumoniae, UniProt C7C422) | 8.70
NS(=O)(=O)c1c(C(F)(F)F)ccc(N2CCC[C@H](O)C2)c1-c1nnn[nH]1 [Example 657] | NDM-1 (Klebsiella pneumoniae, UniProt C7C422) | 8.01
NS(=O)(=O)c1c(CC[C@H]2CC[C@H](N)CC2)ccc(-c2ccc(C3CCNC3)cc2)c1-c1nnn[nH]1 (stereo partly drawn) [Example 584] | NDM-1 (Klebsiella pneumoniae, UniProt C7C422) | 8.69
NS(=O)(=O)c1cccc(-c2ccc(N3CCC3CO)nc2)c1-c1nnn[nH]1 (stereo in doubt) [Example 636] | NDM-1 (Klebsiella pneumoniae, UniProt C7C422) | 8.81
NC[C@H]1CC[C@H](c2ccc(CC3CCNCC3)c(S(N)(=O)=O)c2-c2nn[nH]n2)CC1 [Example 590] | NDM-1 (Klebsiella pneumoniae, UniProt C7C422) | 8.08
NS(=O)(=O)c1c(C(F)(F)F)ccc([C@H]2CC[C@H](NC3CCNCC3)CC2)c1-c1nnn[nH]1 [Example 698] | NDM-1 (Klebsiella pneumoniae, UniProt C7C422) | 8.00
NCCNc1nc2c(-c3cccc(S(N)(=O)=O)c3-c3nn[nH]n3)cccc2s1 [Example 639] | NDM-1 (Klebsiella pneumoniae, UniProt C7C422) | 8.70
Cn1c(-c2ccc(-c3ccc(C(F)(F)F)c(S(N)(=O)=O)c3-c3nnn[nH]3)cc2)cnc1N.O=C(O)C(F)(F)F [Example 560] | NDM-1 (Klebsiella pneumoniae, UniProt C7C422) | 9.14
Nc1nc(-c2ccc(-c3ccc(C(F)(F)F)c(S(N)(=O)=O)c3-c3nnn[nH]3)cc2)cs1 [Example 732] | NDM-1 (Klebsiella pneumoniae, UniProt C7C422) | 9.27
NCCCCNc1nc2c(-c3cccc(S(N)(=O)=O)c3-c3nnn[nH]3)cccc2s1 [Example 642] | NDM-1 (Klebsiella pneumoniae, UniProt C7C422) | 8.99

====

tested_system: NDM-1 (Klebsiella pneumoniae, UniProt C7C422)
protocol_details: biochemical
Type: biochemical
assay_context: NDM-1 enzyme, CCF2-FA substrate; read-out: NDM-1 IC50
Rule: IC50 below 3 nM gives fulfilled, anything at or above gives not fulfilled.

molecule | class_label
NS(=O)(=O)c1c(C(F)(F)F)ccc(C2CCNc3ccccc32)c1-c1nnn[nH]1 (centres unmarked) | fulfilled
NS(=O)(=O)c1c(C(F)(F)F)ccc([C@H]2CC[C@H](NC3CCCNCC3)CC2)c1-c1nnn[nH]1 (some centres unmarked) | not fulfilled
NS(=O)(=O)c1c(C(F)(F)F)ccc(-c2ccc(C3CCCN3)cc2)c1-c1nnn[nH]1 (centres unmarked) | not fulfilled
CN(CCCCN)c1nc2c(-c3cccc(S(N)(=O)=O)c3-c3nnn[nH]3)cccc2s1 | fulfilled
NS(=O)(=O)c1cccc(-c2ccc(C3CCN(CC4CNC4)CC3)cc2)c1-c1nnn[nH]1 | not fulfilled
Nc1ccc(-c2ccc(C[C@H]3CC[C@H](N)CC3)c(S(N)(=O)=O)c2-c2nnn[nH]2)cn1 | not fulfilled
NCC[C@H]1CC[C@@H](c2ccc(C(F)(F)F)c(S(N)(=O)=O)c2-c2nnn[nH]2)CC1 | fulfilled
NS(=O)(=O)c1c(CCCCCCO)ccc(CCCCCCO)c1-c1nn[nH]n1 | fulfilled

====

The following compounds are shown together with reported pIC50 values.
tested_system: VIM-1 (Pseudomonas aeruginosa (strain ATCC 15692 / DSM 22644 / CIP 104116 / JCM 14847 / LMG 12228 / 1C / PRS 101 / PAO1))
protocol_details: Enzyme activity: determination of IC50, fluorescence assay with CCF2-FA substrate (VIM-1)
Type: biochemical
assay_context: VIM-1 enzyme, CCF2-FA substrate; read-out: VIM-1 IC50
pIC50: −log10 of the molar value.
measured_endpoint: pIC50

compound | experimental_value
NS(=O)(=O)c1c(CC[C@H]2CC[C@H](N)CC2)ccc(-c2ccc(C3CCNC3)cc2)c1-c1nnn[nH]1 (stereo partly drawn) | 8.79
NS(=O)(=O)c1c(C(F)(F)F)ccc(-c2cccc3c2CNC3=O)c1-c1nn[nH]n1 | 10.05
NS(=O)(=O)c1c(C(F)(F)F)ccc(-c2ccc(C3CCN(CC4CNC4)CC3)cc2)c1-c1nnn[nH]1 | 8.25
NS(=O)(=O)c1cccc(-c2cnc3ncccn23)c1-c1nnn[nH]1 | 7.08
NS(=O)(=O)c1c(C(F)(F)F)ccc(-c2cccc3c2CCNC3)c1-c1nn[nH]n1 | 9.03
NS(=O)(=O)c1c(C(F)(F)F)ccc(-c2ccc(C3CCN(CC4CCCCN4)CC3)cc2)c1-c1nnn[nH]1 (stereo not drawn) | 8.04
NS(=O)(=O)c1c(C(F)(F)F)ccc(-c2ccc(C3CCN(CC4CCCNC4)CC3)cc2)c1-c1nnn[nH]1 (stereo not drawn) | 8.04
NS(=O)(=O)c1c(C(F)(F)F)ccc(N2CCC[C@H](O)C2)c1-c1nnn[nH]1 | 8.68
NS(=O)(=O)c1c(C(F)(F)F)ccc(N2CCN(CCCO)CC2)c1-c1nnn[nH]1 | 7.28
NCCN1CCC(c2ccc(-c3cccc(S(N)(=O)=O)c3-c3nnn[nH]3)cc2)CC1 | 6.56
NC1(c2ccc(-c3ccc(C(F)(F)F)c(S(N)(=O)=O)c3-c3nnn[nH]3)cc2)CCOC1 (stereo not drawn) | 8.22
Nc1nc2c(-c3ccc(CCCCCO)c(S(N)(=O)=O)c3-c3nn[nH]n3)cccc2s1 | 9.07
NS(=O)(=O)c1c(C(F)(F)F)ccc([C@H]2CC[C@H](NC3CC[C@@H]4CNCC[C@H]4C3)CC2)c1-c1nnn[nH]1 (stereo partly drawn) | 7.97
NS(=O)(=O)c1c(C(F)(F)F)ccc(-c2ccc(C3CNCCO3)cc2)c1-c1nnn[nH]1 (stereo not drawn) | 9.09
C[N+]1(C)CCc2c(cccc2-c2ccc(C(F)(F)F)c(S(N)(=O)=O)c2-c2nn[nH]n2)C1 | 8.71

====

tested_system: IMP-1 (Serratia marcescens, UniProt P52699)
Sequence (P52699 whole entry, looked up): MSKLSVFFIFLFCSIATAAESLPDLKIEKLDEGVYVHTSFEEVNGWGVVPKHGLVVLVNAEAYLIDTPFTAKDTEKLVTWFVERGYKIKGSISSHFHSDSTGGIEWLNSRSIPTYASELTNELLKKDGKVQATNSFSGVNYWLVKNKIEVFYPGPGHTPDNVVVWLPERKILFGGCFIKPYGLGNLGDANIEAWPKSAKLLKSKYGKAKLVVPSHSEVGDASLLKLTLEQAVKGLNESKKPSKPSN
protocol_details: biochemical
Assay type: biochemical
assay_context: fluorescence assay with CCF2-FA substrate; read-out: IMP-1 IC50

molecule | value_unit | IC50
NC1CCCC1N1CC(c2ccc(-c3ccc(C(F)(F)F)c(S(N)(=O)=O)c3-c3nnn[nH]3)cc2)C1 (stereo not shown) [Example 811] | µM | 0.00942
NS(=O)(=O)c1nccc(N2CCC(c3cccnc3)CC2)c1-c1nnn[nH]1 [Example 218] | µM | 0.484
NS(=O)(=O)c1cccc(-c2ccc(C(=O)N3CCC(O)CC3)cc2)c1-c1nn[nH]n1 [Example 52] | µM | 0.0179
NS(=O)(=O)c1c(C(F)(F)F)ccc([C@H]2CC[C@@H](N)CC2)c1-c1nnn[nH]1 [Example 819] | µM | 0.0971
NS(=O)(=O)c1cccc(C#CCN2CCC(=O)CC2)c1-c1nn[nH]n1 [Example 146] | µM | 0.766
NS(=O)(=O)c1c(C(F)(F)F)ccc(N2CCC3(CCNCC3)CC2)c1-c1nnn[nH]1 [Example 783] | µM | 0.0134
Cn1cc2cc(-c3cccc(S(N)(=O)=O)c3-c3nnn[nH]3)ccc2n1 [Example 127] | µM | 0.157
Cc1cccn2c(-c3cccc(S(N)(=O)=O)c3-c3nnn[nH]3)cnc12 [Example 139] | µM | 0.0984
Cc1sccc1-c1cccc(S(N)(=O)=O)c1-c1nn[nH]n1 [Example 108] | µM | 0.255
Cn1nccc1-c1cccc(S(N)(=O)=O)c1-c1nn[nH]n1 [Example 49] | µM | 4.05
NS(=O)(=O)c1c(C(F)(F)F)ccc(-c2ccc(C3CN(CC4CCNC4)C3)cc2)c1-c1nnn[nH]1 (stereo not shown) [Example 818] | µM | 0.0086
NS(=O)(=O)c1cccc(C2CCn3cncc3C2)c1-c1nn[nH]n1 (stereo not shown) [Example 178] | µM | 1.02
NC1CCC(N2CC(c3ccc(-c4ccc(C(F)(F)F)c(S(N)(=O)=O)c4-c4nnn[nH]4)cc3)C2)C1 (stereo not shown) [Example 808] | µM | 0.00844
Cc1csc(-c2cccc(S(N)(=O)=O)c2-c2nn[nH]n2)n1 [Example 34] | µM | 3.09
NS(=O)(=O)c1nccc(-c2ccc3cccnc3c2)c1-c1nn[nH]n1 [Example 213] | µM | 0.564
CC(C)(C)c1cccc(S(N)(=O)=O)c1-c1nnn[nH]1 [Example 161] | µM | 0.306
NS(=O)(=O)c1cccc(C2CCC2)c1-c1nnn[nH]1 [Example 149] | µM | 0.493
NS(=O)(=O)c1cccc(-c2ccccn2)c1-c1nn[nH]n1 [Example 93] | µM | 0.331
NS(=O)(=O)c1c(C(F)(F)F)ccc(N2CCC(N3CCNCC3)CC2)c1-c1nnn[nH]1 [Example 780] | µM | 0.0317
Nc1ccc2cc(-c3ccc(C(F)(F)F)c(S(N)(=O)=O)c3-c3nnn[nH]3)ccc2n1 [Example 745] | µM | 0.0015
COC1CCN(C(=O)c2ccc(-c3cccc(S(N)(=O)=O)c3-c3nn[nH]n3)cc2)CC1 [Example 51] | µM | 0.0274
NC(=O)c1ccc(-c2cccc(S(N)(=O)=O)c2-c2nn[nH]n2)cc1 [Example 15] | µM | 0.134
NS(=O)(=O)c1nccc(-c2ccc(C3CCNC3)cc2)c1-c1nnn[nH]1 (stereo not shown) [Example 198] | µM | 1.17
NS(=O)(=O)c1nccc(N2CCC(N3CCCC3)CC2)c1-c1nnn[nH]1 [Example 222] | µM | 20
CN(C)c1ccc(C(F)(F)F)c(S(N)(=O)=O)c1-c1nnn[nH]1 [Example 784] | µM | 0.0483
NS(=O)(=O)c1nccc(N2CCC(c3cnc4n3CCCC4)CC2)c1-c1nnn[nH]1 [Example 225] | µM | 0.0762
NS(=O)(=O)c1cccc(-c2ccc3nonc3c2)c1-c1nnn[nH]1 [Example 130] | µM | 0.267
N[C@@H]1CN(c2ccc(C(F)(F)F)c(S(N)(=O)=O)c2-c2nnn[nH]2)CC12CC2 [Example 754] | µM | 0.869
NS(=O)(=O)c1c(C(F)(F)F)ccc(N2CCC(C3CCNCC3)C2)c1-c1nnn[nH]1 (stereo not shown) [Example 774] | µM | 0.0291
Cn1nnc2ccc(-c3cccc(S(N)(=O)=O)c3-c3nn[nH]n3)cc21 [Example 67] | µM | 0.911
CS(=O)(=O)Nc1ccc(-c2ccnc(S(N)(=O)=O)c2-c2nn[nH]n2)cc1 [Example 206] | µM | 0.0915
NS(=O)(=O)c1nccc(-c2ccc(CO)cc2)c1-c1nnn[nH]1 [Example 181] | µM | 0.375
NS(=O)(=O)c1cccc(-c2cccc3c2CNC3=O)c1-c1nnn[nH]1 [Example 120] | µM | 0.777
NS(=O)(=O)c1cccc(-c2ccco2)c1-c1nn[nH]n1 [Example 41] | µM | 0.247

Values from patent US9708336B2
